As shown below, each of these variants has a reported self-cleavage value.
B1: LINE1-full (parent)
chain: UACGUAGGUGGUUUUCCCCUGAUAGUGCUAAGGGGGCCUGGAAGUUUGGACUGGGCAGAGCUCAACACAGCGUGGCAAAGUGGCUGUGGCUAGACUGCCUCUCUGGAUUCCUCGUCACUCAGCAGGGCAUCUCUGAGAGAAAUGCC

variants of: B1; assay: self-cleavage, relative activity (ratio to wild type); higher = more cleavage; in vitro, sequencing; the parent is a self-cleaving ribozyme
Answer with a number only.

Record excerpt, results attached:
sequence_code="UACGUAGGUGGUUUUCCCCUUAUAGUGCUAAGGGGGCCUGGAAGUUUGGACUGGGCAGAGCUCAACACAGCGUGGCAAAGUGGCGGUGGCUAGACUGCCUCUCUGGAUUCCUCGUCACUCAGCAGGGCAUCUCUGAGAGAAAUGCC [G21U U85G]" reported_property=self-cleavage value_measured=0.08
sequence_code="UACGUAGGUGAUUUACCCCUGAUAGUGCUAAGGGGGCCUGGAAGUUUGGACUGGGCAGAGCUCAACACAGCGUGGCAAAGUGGCUGUGGCUAGACUGCCUCUCUGGAUUCCUCGUCACUCAGCAGGGCAUCUCUGAGAGAAAUGCC [G11A U15A]" reported_property=self-cleavage value_measured=0.99
sequence_code="UACGUAGGUGGUUUUCCCCUGAUAGUGCUAAGGGGGCCUGGAAGUCUGGACUGGGCAGAGCUCAGCACAGCGUGGCAAAGUGGCUGUGGCUAGACUGCCUCUCUGGAUUCCUCGUCACUCAGCAGGGCAUCUCUGAGAGAAAUGCC [U46C A65G]" reported_property=self-cleavage value_measured=0.06
sequence_code="UACGUAGGUGGUUUUCCCCUGAUAGUGCUAAGGGGGCCUGGAAGUUUGGACUGGGCCGAGCUCAACACAGCGUGGCAAAGUGGCUGUGGCUAGACUGCCUCUCUGGAUUCCUCGUCACUCAGCAGGGCACCUCUGAGAGAAAUGCC [A57C U130C]" reported_property=self-cleavage value_measured=0.18
sequence_code="UACGUAGGUGGUUUUCCCCUGAUAGUGCUAAGGGGGCCUGGAAGUUUGGACUGGGCAGAGCCCCACACAGCGUGGCAAAGUGGCUGUGGCUAGACUGCCUCUCUGGAUUCCUCGUCACUCAGCAGGGCAUCUCUGAGAGAAAUGCC [U62C A64C]" reported_property=self-cleavage value_measured=0
sequence_code="UACGUAGGUGGUUUUCCCCUGAUAGUGCUACGGGGGCCUGGAAGUUUGGACUGGGCAGAGCUCAACACAGCGUGGCAAAGUGGCUGUGGCUAGACUGCCUCUCUGGAUUCCUCGUCACUCAGCAGGGCAUCUCUGAGGGAAAUGCC [A31C A138G]" reported_property=self-cleavage value_measured=1.31

Now for a further variant.
Task: Give self-cleavage for the following variant: UACGUAGGUGGUUCUCCCCUAAUAGUGCUAAGGGGGCCUGGAAGUUUGGACUGGGCAGAGCUCAACACAGCGUGGCAAAGUGGCUGUGGCUAGACUGCCUCUCUGGAUUCCUCGUCACUCAGCAGGGCAUCUCUGAGAGAAAUGCC [U14C G21A]
Result: 1.39
